Test system: HCT-116
Test: NCI tumour cell line growth inhibition, 48 h
Activity calls are given as the source filed them. Cut-off read from the data, not from the text of the source: active = GI50 up to about 1.1 µM and inactive = higher.
Outcomes: 1 (yes) (active), 0 (no) (inactive)

molecule	group_label
COc1cc(/C=C/c2ccnc3ccccc23)cc(OC)c1OC	0 (no)
CC1(C)OCC2OC3(c4nc(C#N)c(N)o4)OC(C)(C)OC3C2O1 (stereo unspecified)	0 (no)
COc1ccc2nc3cccc([N+](=O)[O-])c3c(NCCN(C)C)c2c1	1 (yes)
c1ccc(-c2nc3ccccc3n3nnnc23)cc1	0 (no)
COC(=O)c1c(O)ccc2c1c1c(n2Cc2ccc(Cl)cc2Cl)C(=O)c2ccccc2C1	0 (no)
CCOC(=O)NC(=S)c1ccc(O)c2ccccc12	0 (no)
COc1ccccc1[S+]([O-])Nc1ccccc1 (stereo unspecified)	0 (no)
C[C@@H]1C(=O)C[C@H]2C(C)(C)CCC[C@]2(C)[C@@]1(O)CCc1ccoc1	0 (no)
NC(=S)NN=C1Cc2ccccc2C1	0 (no)
COc1cc(S(=O)(=O)N/N=C/C=C/c2ccccc2)c(OC)cc1NC(C)=O	0 (no)
O=C(O)c1ccc(/C=N\N(CCO)C2=NCCN2)cc1	0 (no)
O=C(C[C@@H]1CCCN2CCCC[C@H]12)N1c2ccccc2Sc2ccc(Cl)cc21	0 (no)
c1ccc(CN(Cc2ccccn2)Cn2cccn2)nc1	0 (no)
CC(C)N(CCCNc1c2ccccc2nc2cccc([N+](=O)[O-])c12)C(C)C	1 (yes)
O=c1c2ccccc2nc2n1-c1ccccc1SC2	0 (no)
CCOC(=O)C(C)NC(=O)C(C)NC(=O)C(C)NC(=O)C(C)NC(=O)C(C)NC(=O)OCc1ccccc1 (stereo unspecified)	0 (no)
[O-][s+]1c2c(Cc3ccccc3)c(Cc3ccccc3)c1CCc1cccc(c1)CC2	0 (no)
COc1cc2c(cc1OCCCNC(=O)c1cc3ccccc3[nH]1)N=C[C@@H]1CCCN1C2=O	1 (yes)
NC(=O)C[C@H](NC(=O)C1(NC(=O)[C@H](Cc2ccc(CP(=O)(O)O)cc2)NC(=O)C(=O)O)CCCCC1)C(=O)NCCCc1cccc2ccccc12	0 (no)
Cc1ccc(S(=O)(=O)Oc2ccc(OS(=O)(=O)c3ccc(C)cc3)c3c2C(=O)c2ccccc2C3=O)cc1	0 (no)
Cc1cc(OCC(O)CO)ccc1-c1ccccc1 (stereo unspecified)	0 (no)
CC(C)(C)OC(=O)NCCCCC1NC(=O)[C@@H]2Cc3c([nH]c4ccccc34)C(c3ccccc3)N2C1=O (stereo partly specified)	0 (no)
Cc1[nH]c(=O)[nH]c(=O)c1/C=C/C(=O)NC(CO)C[S+]([O-])Cc1ccccc1 (stereo unspecified)	0 (no)
CC1(C)S[C@@H]2[C@H](N3C(=O)c4ccccc4C3=O)CN2[C@H]1NC(=O)N[C@@H]1N2C[C@@H](N3C(=O)c4ccccc4C3=O)[C@H]2SC1(C)C	0 (no)
CCC1(O)C(=O)OCc2c1cc1n(c2=O)Cc2cc3cc(OC)c(OC)cc3nc2-1 (stereo unspecified)	0 (no)
O=C(/C=C/c1ccccc1Cl)NC1C=Nc2ccc([N+](=O)[O-])cc2NC1 (stereo unspecified)	0 (no)
CCOC(=O)c1c[nH]c(C(=O)C=[N+]=[N-])c1C1CCN(CC)C1=S (stereo unspecified)	0 (no)
CN(C)C1(N(C)C)Oc2c(c(=O)n(C)c(=O)n2C)C(c2ccc(C(F)(F)F)cc2)C1(F)F (stereo unspecified)	0 (no)
C/C(=C1/N=C(c2ccccc2)OC1=O)c1ccc(C)cc1	0 (no)
NC(=S)N/N=C(\CC1OC(=O)c2ccccc21)c1ccc(Cl)cc1 (stereo unspecified)	0 (no)
COCCOCCOCCC(=O)NC1CC2CCC1(C)C2(C)C (stereo unspecified)	0 (no)
CC(C)(SCc1ccccc1)C(N)C(=O)O (stereo unspecified)	0 (no)
N/C(=N\O)N/N=C\c1c(O)cc(O)cc1O	0 (no)
O=c1[nH]c2cc(Cl)ccc2nc1/C(=N/Nc1ccccc1)C(O)c1ccco1 (stereo unspecified)	0 (no)
COc1ccccc1NC(=O)C(CC(C(=O)Nc1ccccc1OC)/C(C)=N/Nc1ccc([N+](=O)[O-])cc1[N+](=O)[O-])/C(C)=N/Nc1ccc([N+](=O)[O-])cc1[N+](=O)[O-] (stereo unspecified)	0 (no)
CC(=O)c1cc(C)n2c1CS[C@@H]2c1ccccc1	0 (no)
O=C(O)c1c(O)c2cc(Br)ccc2oc1=O	0 (no)
C/C(Cc1ccc2c(c1)OCO2)=N\NC(=O)C(C)Sc1nnc(SC(C)C(=O)N/N=C(\C)Cc2ccc3c(c2)OCO3)s1 (stereo unspecified)	0 (no)
CC(=O)CCn1[nH]c(=O)c(Cl)c(Cl)c1=O	0 (no)
CCN(C(=N)C#N)c1ccccc1	0 (no)
CCOC(=O)/C(=N/Nc1ccc(C)cc1)N1C(=S)N(C)N=C(C)C=C1S	0 (no)

* * *

System: MDA-MB-231
Assay: NCI tumour cell line growth inhibition, 48 h
Calls of active or inactive are those of the source. Rule as the data show it: active = GI50 up to about 1.1 µM and inactive = higher.
Outcomes: 1.0 for active, 0.0 for inactive

compound	group_label
COc1c2ccoc2c(OC)c2oc(=O)ccc12 [ISOPIMPINELLIN]	0.0
CC(C)(C)OC(=O)CN1CCNCCN(CC(=O)OC(C)(C)C)CC1	0.0
NCCCN1CCN(CCCNc2ccc3ncn4c5ccccc5c(=O)c2c34)CC1	1.0
CC(C)(SCc1ccccc1)C(N)C(=O)O (stereo unspecified)	0.0
Cc1ccc(S(=O)(=O)Oc2ccc(OS(=O)(=O)c3ccc(C)cc3)c3c2C(=O)c2ccccc2C3=O)cc1	0.0
CN(C)CCNC(=O)c1cccc2c(NC(CCCNC(=N)N)C(=O)O)c3ccccc3nc12 (stereo unspecified)	0.0
Nc1nccc(-c2c[nH]c3cc(Br)ccc23)n1 [MERIDIANIN D]	0.0
CCOC(=O)/C(=N/Nc1ccc(C)cc1)N1C(=S)N(C)N=C(C)C=C1S	0.0
CCCC(=O)[O-].[Na+] [SODIUM BUTYRATE]	0.0
COC1OC(=O)C(OC)C(OC)C1OC (stereo unspecified)	0.0
COC(=O)C1c2cc3c(c(O)c2CCC1(C)O)C(=O)c1c(O)cc2c(c1C3=O)OC1OC2(C)C(O)C(N(C)C)C1O (stereo unspecified)	1.0

* * *

Test system: NCI-H23
Test: NCI tumour cell line growth inhibition, 48 h
Calls of active or inactive are those of the source. No stated cut-off is given here; in the data, active = GI50 up to about 1.1 µM and inactive = higher.

compound	GI50
CCCCCCCC(=O)OC(COC(=O)Cc1ccccc1)COC(=O)C(C)(C)C (stereo unspecified)	> 100 µM (inactive)
CCOC(=O)c1c[nH]c(C(=O)C=[N+]=[N-])c1C1CCN(CC)C1=S (stereo unspecified)	99.8 µM (inactive)
CC(C)C1OC(N)=C(C#N)C1(C#N)C#N (stereo unspecified)	33.3 µM (inactive)
C/C(=C1/N=C(c2ccccc2)OC1=O)c1ccc(C)cc1	> 100 µM (inactive)
CC1(CCCCO)C=CC(S(=O)(=O)c2ccccc2)CC1 (stereo unspecified)	5.04 µM (inactive)
CC(=O)CCn1[nH]c(=O)c(Cl)c(Cl)c1=O	> 100 µM (inactive)
COc1ccc(C(=O)N2CCN(c3ccc4c(c3)OCC(=O)N4)CC2)cc1	> 100 µM (inactive)
CCOC(=O)NC(=S)c1ccc(O)c2ccccc12	55.5 µM (inactive)
c1ccc(C2=NOC3COc4ccccc4OCC23)cc1 (stereo unspecified)	> 100 µM (inactive)
O=S(=O)(c1ccccc1)c1nccs1	> 100 µM (inactive)
COC(=O)C(=O)C(C(=O)C(=O)Nc1nc2ccc(C)cc2s1)c1nc2ccc([N+](=O)[O-])cc2nc1O (stereo unspecified)	> 100 µM (inactive)
Cc1ccc(C)c(COCCOCn2cc(N3CCOCC3)c(=O)[nH]c2=O)c1	> 100 µM (inactive)
O=C1CC(c2ccc(Cl)cc2)C2(C(=O)NC(=S)NC2=O)C(c2ccc(Cl)cc2)C1 (stereo unspecified)	18.8 µM (inactive)
CC(C)(C)C1=CC(=CC=C2C=CN(CCCCCCCCCCCO)C=C2)C=C(C(C)(C)C)C1=O	2.03 µM (inactive)
COc1nc2ccc(COc3ccc(C(=O)O)cc3)cc2nc1OC	> 100 µM (inactive)
O=C(O)CN(CC(=O)O)C1CCCCC1N1CC(=O)OC(=O)C1 (stereo unspecified)	> 100 µM (inactive)
NC(CCc1nc(-c2ccc(Cl)cc2)cs1)C(=O)O (stereo unspecified)	> 100 µM (inactive)
N/C(=N\O)N/N=C\c1c(O)cc(O)cc1O	> 75 µM (inactive)
CCOC(=O)C(NC(=O)CC(C)C)(Nc1ccc(S(=O)(=O)Nc2nc(C)cc(C)n2)cc1)C(F)(F)F (stereo unspecified)	> 100 µM (inactive)
Cc1oc2c(c1C(=O)c1ccccc1)C(=O)c1ccccc1C2=O	2.01 µM (inactive)
CCOC(=O)C(NCc1ccccc1)(NC(=O)c1ccccc1)C(F)(F)F (stereo unspecified)	> 100 µM (inactive)

The reported numbers originate from ChEMBL document CHEMBL1201862.
